These measurements were taken from BigSolDB 2.1.

# conditionSet: in ethanol, 283.15 K
metric: solubility (mole fraction)
Output spec: single numeric token, no unit.

Query: # input compound: `CC(C)C(=O)OCC(=O)[C@@]12O[C@H](C3CCCCC3)O[C@@H]1C[C@H]1[C@@H]3CCC4=CC(=O)C=C[C@]4(C)[C@H]3[C@@H](O)C[C@@]12C` ; wanted: its solubility (mole fraction)
Response: 0.00333

* * *

# conditionSet: in isopropanol, 278.15 K
metric: solubility (mole fraction)
Output spec: single numeric token, no unit.

Query: # input molecule: `CC(C)C(=O)OCC(=O)[C@@]12O[C@H](C3CCCCC3)O[C@@H]1C[C@H]1[C@@H]3CCC4=CC(=O)C=C[C@]4(C)[C@H]3[C@@H](O)C[C@@]12C` ; wanted: its solubility (mole fraction)
Response: 0.00814
